# PROTOCOL DESCRIPTION: chemical genetic growth profiling, strain panel (AID 1159580);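 further: tested at 20 µM; growth read once vehicle control cultures reached saturation at 30 °C; 1 = growth at the plate median or of vehicle wells; lower values mean less growth of the strain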
# PROTOCOL CONDITIONS: S. cerevisiae deletion strains, growth OD, locus YLR058C, strain SHM2 (second series), hits give low values
The campaign covered roughly 5,500 compounds. About 2,000 (36%) were called active. About 18% were inconclusive and are not listed. This is one part of the list.
In this section we review reported normalized growth values for a set of molecules.

>  <STRUCTURE>
Cc1c(C)c(C)c(CSc2nc3ccccc3[nH]2)c(C)c1C

>  <normalized growth>
1.06 (inactive)

$$$$
>  <STRUCTURE>
CCOC(=O)c1ccc(Oc2ccc(Cl)cc2Cl)c([N+](=O)[O-])c1

>  <normalized growth>
0.99 (inactive)

$$$$
>  <STRUCTURE>
Cc1nn(Cc2ccccc2Cl)c(=N)s1

>  <normalized growth>
1.01 (inactive)

$$$$
>  <STRUCTURE>
O=S(=O)(c1ccc(Cl)cc1)c1cc(C(F)(F)F)cc(C(F)(F)F)c1

>  <normalized growth>
0.987 (inactive)

$$$$
>  <STRUCTURE>
N#Cc1cccc(CSC2=NCN(C3CC3)CN2)c1

>  <normalized growth>
1.01 (inactive)

$$$$
>  <STRUCTURE>
COc1ccc(C(=O)c2sc(Nc3ccccc3)nc2-c2ccccc2)cc1

>  <normalized growth>
1.02 (inactive)

$$$$
>  <STRUCTURE>
FC(F)(F)c1cc(Cl)c2nsnc2c1

>  <normalized growth>
0.993 (inactive)

$$$$

====

# PROTOCOL DESCRIPTION: chemical genetic growth profiling, strain panel (AID 1159580);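 further: tested at 20 µM; growth read once vehicle control cultures reached saturation at 30 °C; 1 = growth at the plate median or of vehicle wells; lower values mean less growth of the strain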
# PROTOCOL CONDITIONS: S. cerevisiae deletion strains, growth OD, locus YLR262C, strain YPT6, hits give low values
Out of some 5,500 compounds screened, about 2,000 (36%) were called active. Another 18% or so got no clear call; they are omitted. Some of the results follow.
Mark each entry t if its normalized growth sits below 1, and f for all others.

>  <MOLECULE>
NC(=O)NC1NC(=O)NC1=O (stereo not given)

>  <DISCRETE LABEL>
t

$$$$
>  <MOLECULE>
CC(C)=CC1C(C(=O)OCc2cccc(Oc3ccccc3)c2)C1(C)C (stereo not given)

>  <DISCRETE LABEL>
t

$$$$
>  <MOLECULE>
CC1CCC(NC(=O)N(CCCl)N=O)CC1 (stereo not given)

>  <DISCRETE LABEL>
t

$$$$
>  <MOLECULE>
N[C@@H](C(=O)O)[C@@H](O)[C@H](O)[C@H](O)CO

>  <DISCRETE LABEL>
f

$$$$
>  <MOLECULE>
CCN1C[C@@]2(COC)C3[C@@H](OC)[C@H]4[C@@H]1[C@]3(C(OC)C[C@H]2O)C1C[C@@]2(O)[C@H](OC(=O)c3ccccc3)C1[C@]4(OC(C)=O)[C@@H](O)[C@@H]2OC (stereo not given in full)

>  <DISCRETE LABEL>
f

$$$$
>  <MOLECULE>
COc1ccc2oc3ccccc3c(=O)c2c1

>  <DISCRETE LABEL>
t

$$$$
>  <MOLECULE>
CCOC(=O)C(=CNNS(=O)(=O)c1cc(C(F)(F)F)cc(C(F)(F)F)c1)C(=O)OCC

>  <DISCRETE LABEL>
t

$$$$
>  <MOLECULE>
CC12CCC3C(=CCc4cc(O)ccc43)C1CCC2=O (stereo not given)

>  <DISCRETE LABEL>
t

$$$$
>  <MOLECULE>
C[C@]12CCC3c4ccc(OC(=O)c5ccccc5)cc4CCC3C1CCC2=O (stereo not given in full)

>  <DISCRETE LABEL>
t

$$$$
>  <MOLECULE>
O=C1CCCCC/C=C/CCCCCCCCO1

>  <DISCRETE LABEL>
t

$$$$
>  <MOLECULE>
CC(C)/C(O)=C1/C(=O)O[C@@H](c2ccoc2)[C@]2(C)C(O)[C@@H](O)[C@@]34OC5(C)OC67CC(C)(C(O)[C@]6(O)[C@@H](O)[C@]3(O5)C12)[C@H](CC(=O)O)[C@]74C (stereo not given in full)

>  <DISCRETE LABEL>
f

$$$$
>  <MOLECULE>
NCCCCC(=O)O

>  <DISCRETE LABEL>
f

$$$$
>  <MOLECULE>
CCOC(=O)c1cnn(-c2ccc(F)cc2)c1N

>  <DISCRETE LABEL>
f

$$$$
>  <MOLECULE>
C[C@]12CCC3c4ccc(O)cc4CCC3C1CCC2=O (stereo not given in full)

>  <DISCRETE LABEL>
t

$$$$
>  <MOLECULE>
NC(N)=NCCCCN=C(N)N

>  <DISCRETE LABEL>
t

$$$$
>  <MOLECULE>
COc1ccc(CCC(=O)c2c(O)cc(O[C@@H]3O[C@H](CO)C(O)[C@H](O)C3O[C@@H]3O[C@@H](C)[C@H](O)[C@@H](O)[C@H]3O)cc2O)cc1O (stereo not given in full)

>  <DISCRETE LABEL>
t

$$$$
>  <MOLECULE>
O=C(CN1CCOCC1)Nc1cc(C(F)(F)F)cc(C(F)(F)F)c1

>  <DISCRETE LABEL>
f

$$$$
>  <MOLECULE>
C[C@]12CCC3c4ccc(OC(=O)CCC(=O)O)cc4CCC3C1CCC2=O (stereo not given in full)

>  <DISCRETE LABEL>
t

$$$$
>  <MOLECULE>
O=S(=O)(NCc1ccc2c(c1)OCO2)c1ccc(F)c(Cl)c1

>  <DISCRETE LABEL>
t

$$$$
>  <MOLECULE>
COc1ccc2c(=O)c(OC)c(-c3ccccc3)oc2c1

>  <DISCRETE LABEL>
t

$$$$
>  <MOLECULE>
O=C1CCc2cccc3cccc1c23

>  <DISCRETE LABEL>
t

$$$$
>  <MOLECULE>
Clc1ccc(Oc2ccnc3cc(Cl)ccc23)cc1

>  <DISCRETE LABEL>
t

$$$$
>  <MOLECULE>
Fc1ccc([C@@H]2CCNC[C@H]2COc2ccc3c(c2)OCO3)cc1

>  <DISCRETE LABEL>
f

$$$$
>  <MOLECULE>
CC(=O)c1ccc(N2C(=O)CSCC2=O)cc1

>  <DISCRETE LABEL>
t

$$$$
>  <MOLECULE>
O=C(O)C1CCCNC1 (stereo not given)

>  <DISCRETE LABEL>
f

$$$$
>  <MOLECULE>
COP(=S)(OC)Oc1ccc([N+](=O)[O-])cc1

>  <DISCRETE LABEL>
t

$$$$
>  <MOLECULE>
CCCn1c(=O)c2[nH]c(C3CCCC3)nc2n(CCC)c1=O

>  <DISCRETE LABEL>
t

$$$$

====

normalized growth overview
# PROTOCOL DESCRIPTION: chemical genetic growth profiling, strain panel (AID 1159580);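 further: tested at 20 µM; growth read once vehicle control cultures reached saturation at 30 °C; 1 = growth at the plate median or of vehicle wells; lower values mean less growth of the strain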
# PROTOCOL CONDITIONS: S. cerevisiae deletion strains, growth OD, locus YGL248W, strain PDE1, hits give low values
Screen size: about 5,500 compounds; about 2,000 (36%) were called active. Roughly 18% stayed inconclusive and do not appear here. Some of the results follow.

>  <MOLECULE>
COC(=O)/C(C)=C\CC12OC(C)(C)C3CC(C=C4C(=O)c5c(OC)c6c(c(CC=C(C)C)c5OC431)OC(C)(CCC=C(C)C)C=C6)C2=O (stereo not given)

>  <normalized growth>
0.986

$$$$
>  <MOLECULE>
C=NC(C(=O)NC1C(=O)N2C1SC(C)(C)C2C(=O)O)c1ccccc1 (stereo not given)

>  <normalized growth>
1.02

$$$$
>  <MOLECULE>
CCCCCCCCCCCCCC(=O)OC1C(C)C2(O)C(C=C(CO)CC3(O)C(=O)C(C)=CC32)C2C(C)(C)C12OC(C)=O (stereo not given)

>  <normalized growth>
1.02

$$$$
>  <MOLECULE>
NCCCCC(=O)O

>  <normalized growth>
1.03

$$$$
>  <MOLECULE>
NCCCC(=O)O

>  <normalized growth>
1.01

$$$$
>  <MOLECULE>
NC(=O)NC1NC(=O)NC1=O (stereo not given)

>  <normalized growth>
0.986

$$$$
>  <MOLECULE>
CC(=O)NCCc1c[nH]c2ccc(O)cc12

>  <normalized growth>
0.98

$$$$
>  <MOLECULE>
C[C@]12CCC3c4ccc(OC(=O)CCC(=O)O)cc4CCC3C1CCC2=O (stereo not given in full)

>  <normalized growth>
1.01

$$$$
>  <MOLECULE>
CCCNC(=O)NS(=O)(=O)c1ccc(Cl)cc1

>  <normalized growth>
1.03

$$$$
>  <MOLECULE>
CCN1C[C@@]2(COC)C3[C@@H](OC)[C@H]4[C@@H]1[C@]3(C(OC)C[C@H]2O)C1C[C@@]2(O)[C@H](OC(=O)c3ccccc3)C1[C@]4(OC(C)=O)[C@@H](O)[C@@H]2OC (stereo not given in full)

>  <normalized growth>
1.02

$$$$
>  <MOLECULE>
CC(=O)OC1CC(OC(C)=O)C2(C)C(CC(OC(C)=O)C3(C)C2CCC2(C)C(c4ccoc4)OC(=O)C4OC423)C1(C)C (stereo not given)

>  <normalized growth>
1

$$$$
>  <MOLECULE>
CC12CCC3C(=CCc4cc(O)ccc43)C1CCC2=O (stereo not given)

>  <normalized growth>
0.936

$$$$
>  <MOLECULE>
O=C(O)CCCCCCCC(=O)O

>  <normalized growth>
0.992

$$$$
>  <MOLECULE>
COC[C@]12CN(C=O)C3[C@@H]4[C@H](OC)C1[C@]3(C1CC3(O)C(OC)C(O)C4(OC(C)=O)C1C3OC(=O)c1ccccc1)[C@@H](OC)C[C@H]2O (stereo not given in full)

>  <normalized growth>
1.02

$$$$
>  <MOLECULE>
CC(=O)O[C@@H]1CC2C(C)(C)C(=O)C3OC3[C@]2(C)C2CC[C@@]3(C)[C@H](c4ccoc4)OC(=O)C4OC43[C@@]21C (stereo not given in full)

>  <normalized growth>
1.01

$$$$
>  <MOLECULE>
C[C@@H]1CC[C@H]2C(C)(C)C3CC12CC[C@@]3(C)O (stereo not given in full)

>  <normalized growth>
0.968

$$$$
>  <MOLECULE>
NCCCCCC(=O)O

>  <normalized growth>
0.987

$$$$
>  <MOLECULE>
CC(=O)O[C@H]1C[C@@H](OC(C)=O)C(C)(C)C2C[C@@H](OC(C)=O)[C@]3(C)C(CC[C@@]4(C)[C@H](c5ccoc5)OC(=O)[C@H]5O[C@]543)[C@]21C (stereo not given in full)

>  <normalized growth>
0.99

$$$$
>  <MOLECULE>
C[C@]12CCC3c4ccc(OC(=O)c5ccccc5)cc4CCC3C1CCC2=O (stereo not given in full)

>  <normalized growth>
1.02

$$$$
>  <MOLECULE>
O=NN(CCCl)C(=O)NCCCl

>  <normalized growth>
0.943

$$$$
